- TARGET OR TEST SYSTEM: Proto-oncogene tyrosine-protein kinase receptor Ret (Homo sapiens)
- Sequence (P07949 whole entry, the tested form may be a part): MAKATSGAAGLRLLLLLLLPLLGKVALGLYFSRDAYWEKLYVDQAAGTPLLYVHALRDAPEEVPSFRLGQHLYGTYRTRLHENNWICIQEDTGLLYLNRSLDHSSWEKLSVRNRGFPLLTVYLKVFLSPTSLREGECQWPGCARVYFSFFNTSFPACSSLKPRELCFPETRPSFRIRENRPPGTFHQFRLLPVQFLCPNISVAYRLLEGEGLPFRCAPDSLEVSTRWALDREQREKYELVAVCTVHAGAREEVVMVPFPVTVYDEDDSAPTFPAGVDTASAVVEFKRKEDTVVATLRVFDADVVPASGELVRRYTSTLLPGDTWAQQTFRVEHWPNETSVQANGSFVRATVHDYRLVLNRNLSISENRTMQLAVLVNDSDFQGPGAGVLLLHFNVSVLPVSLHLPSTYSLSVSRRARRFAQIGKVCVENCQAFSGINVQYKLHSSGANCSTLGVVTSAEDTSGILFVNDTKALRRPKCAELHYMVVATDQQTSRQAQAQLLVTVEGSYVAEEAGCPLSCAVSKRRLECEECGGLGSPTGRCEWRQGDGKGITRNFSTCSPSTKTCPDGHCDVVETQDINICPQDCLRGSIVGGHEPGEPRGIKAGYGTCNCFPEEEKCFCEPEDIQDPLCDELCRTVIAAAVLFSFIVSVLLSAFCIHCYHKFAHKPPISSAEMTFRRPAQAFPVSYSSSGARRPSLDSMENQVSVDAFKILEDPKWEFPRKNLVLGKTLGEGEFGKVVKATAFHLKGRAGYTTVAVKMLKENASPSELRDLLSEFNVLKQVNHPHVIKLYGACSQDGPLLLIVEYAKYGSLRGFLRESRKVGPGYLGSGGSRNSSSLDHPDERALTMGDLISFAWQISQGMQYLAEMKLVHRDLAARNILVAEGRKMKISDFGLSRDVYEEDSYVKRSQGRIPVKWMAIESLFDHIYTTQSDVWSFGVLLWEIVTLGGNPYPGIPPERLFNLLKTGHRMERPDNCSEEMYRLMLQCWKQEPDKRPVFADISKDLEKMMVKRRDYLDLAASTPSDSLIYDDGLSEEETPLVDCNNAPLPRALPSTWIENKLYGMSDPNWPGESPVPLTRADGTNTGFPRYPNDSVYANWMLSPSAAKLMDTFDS
- TEST PROTOCOL: Inhibition of recombinant human GST-tagged RET cytoplasmic domain (658 to 1114 residues) expressed in baculovirus expression system using 5-FAM-EEPLYWSFPAKKK-CONH2 as substrate preincubated for 60 mins followed by substrate addition by microfluidic assay
Mark each entry y if its IC50 sits below 100 nM, and n for all others.

Here's what some known entries look like.
Cn1nc(C(C)(C)C)cc1NC(=O)Cc1ccc(Nc2ncnc3[nH]c(-c4ccsc4)cc23)cc1 : y
O=C(Cc1ccc(Nc2ncnc3[nH]ccc23)cc1)NC1CC1 : n
Cn1cc(-c2cc3c(Nc4ccc(CC(=O)Nc5cc(C(C)(C)C)on5)cc4)ncnc3s2)cn1 : n
COc1ccc(-c2cc3c(Nc4ccc(CC(=O)Nc5cc(C(C)(C)C)nn5C)cc4)ncnc3[nH]2)cc1 : n

Quick check: IC50 of O=C(Cc1ccc(Nc2ncnc3[nH]ccc23)cc1)Nc1cccc(F)c1 under 100 nM? n

Quick check: IC50 of CC(=O)c1ccc(-c2cc3c(Nc4ccc(CC(=O)Nc5cc(C(C)(C)C)on5)cc4)ncnc3[nH]2)cc1 under 100 nM? y

Quick check: IC50 of Cn1nc(C(C)(C)C)cc1NC(=O)Cc1ccc(Nc2ncnc3[nH]c(-c4ccc(S(C)(=O)=O)cc4)cc23)cc1 under 100 nM? y

Quick check: IC50 of Cn1nc(C(C)(C)C)cc1NC(=O)Cc1cccc(Nc2ncnc3[nH]ccc23)c1 under 100 nM? n

Quick check: IC50 of O=C(Cc1ccc(Nc2ncnc3[nH]ccc23)cc1)Nc1ccc(C(F)(F)F)c(Cl)c1 under 100 nM? n

The values you see were collected from ChEMBL document CHEMBL4765434.
